# System: UniProtKB P09917
# Protocol text: Inhibition of 5-LO in human peripheral blood neutrophils using arachidonic acid as substrate preincubated for 15 mins followed by substrate addition measured after 10 mins in presence of Ca2+ ionophore A23187 by RP-HPLC analysis
Recorded measurements of IC50, one per entry
Measure name: IC50 (µM)

- Compound: "CC(=O)c1c(O)c(C(CC(C)C)c2c(O)c3c(c(C(C)=O)c2O)OC(C)(C)C=C3)c(O)c2c1OC(C)(C)C=C2"
  Bound operator: ">"
  Result number: 10
- Compound: "COc1c(CC=C(C)C)c(O)c(C(CC(C)C)c2c(O)c(C(C)=O)c(O)c3c2OC(C)(C)C(O)C3)c(O)c1C(C)=O (stereo not drawn)"
  Bound operator: "="
  Result number: 5
- Compound: "COc1c(CC=C(C)C)c(O)c(C(CC(C)C)c2c(O)c(CC=C(C)C)c(O)c(C(C)=O)c2O)c(O)c1C(C)=O (stereo not drawn)"
  Bound operator: "="
  Result number: 2.3
- Compound: "C=C(C)C1Cc2c(O)c(C(CC(C)C)c3c(O)c4c(c(C(C)=O)c3O)OC(C(=C)C)C4)c(O)c(C(C)=O)c2O1 (stereo not drawn)"
  Bound operator: "="
  Result number: 5
- Compound: "COc1c(CC=C(C)C)c(O)c(C(CC(C)C)c2c(O)c(C(C)=O)c(O)c3c2OC(C(C)(C)O)C3)c(O)c1C(C)=O (stereo not drawn)"
  Bound operator: "="
  Result number: 7.3
- Compound: "CC(=O)c1c(O)cc(O)c(C/C=C(\\C)CCC=C(C)C)c1O"
  Bound operator: "="
  Result number: 1.4
- Compound: "CC(=O)c1c(O)cc(O)c(C(CC(C)C)c2c(O)cc(O)c(C(C)=O)c2O)c1O"
  Bound operator: "="
  Result number: 6.3
- Compound: "COc1c(CC=C(C)C)c(O)c(C(CC(C)C)c2c(O)c3c(c(C(C)=O)c2O)OC(C)(C)C=C3)c(O)c1C(C)=O (stereo not drawn)"
  Bound operator: ">"
  Result number: 10
- Compound: "CC(=O)c1c(O)c(C/C=C(/C)CCC=C(C)C)c(O)c(C(CC(C)C)c2c(O)c(C/C=C(\\C)CCC=C(C)C)c(O)c(C(C)=O)c2O)c1O (stereo not drawn)"
  Bound operator: ">"
  Result number: 10
- Compound: "C=C(C)[C@@H](O)Cc1c(O)c(C(C)=O)c(O)c(C(CC(C)C)c2c(O)c(CC=C(C)C)c(OC)c(C(C)=O)c2O)c1O (stereo partly drawn)"
  Bound operator: "="
  Result number: 6.3
- Compound: "CC(=O)c1c(O)c(CC=C(C)C)c(O)c(C(CC(C)C)c2c(O)c(CC=C(C)C)c(O)c(C(C)=O)c2O)c1O"
  Bound operator: ">"
  Result number: 10
- Compound: "COc1c(CC=C(C)C)c(O)c(C(CC(C)C)c2c(O)c3c(c(C(C)=O)c2O)OC(C(C)(C)O)C3)c(O)c1C(C)=O (stereo not drawn)"
  Bound operator: "="
  Result number: 4.5
- Compound: "COc1c(CC=C(C)C)c(O)c(C(CC(C)C)c2c(O)c3c(c(C(C)=O)c2O)OC(C)(C)C(O)C3)c(O)c1C(C)=O (stereo not drawn)"
  Bound operator: "="
  Result number: 5.3

---

# System: Prostaglandin E synthase (Homo sapiens, UniProt O14684)
# Protocol text: Inhibition of human A549 cell microsomal membrane-derived mPGES-1 assessed as reduction in conversion of PGH2 to PGE2 preincubated for 15 mins followed by PGH2 addition measured after 1 min by RP-HPLC analysis

- Molecule: "COc1c(CC=C(C)C)c(O)c(C(CC(C)C)c2c(O)c(CC=C(C)C)c(O)c(C(C)=O)c2O)c(O)c1C(C)=O (stereo unspecified)"
  Bound operator: "="
  IC50 [nM]: 1100
- Molecule: "COc1c(CC=C(C)C)c(O)c(C(CC(C)C)c2c(O)c3c(c(C(C)=O)c2O)OC(C(C)(C)O)C3)c(O)c1C(C)=O (stereo unspecified)"
  Bound operator: "="
  IC50 [nM]: 1100
- Molecule: "CC(=O)c1c(O)c(C(CC(C)C)c2c(O)c3c(c(C(C)=O)c2O)OC(C)(C)C=C3)c(O)c2c1OC(C)(C)C=C2"
  Bound operator: "="
  IC50 [nM]: 1200
- Molecule: "C=C(C)C1Cc2c(O)c(C(CC(C)C)c3c(O)c4c(c(C(C)=O)c3O)OC(C(=C)C)C4)c(O)c(C(C)=O)c2O1 (stereo unspecified)"
  Bound operator: ">"
  IC50 [nM]: 10000
- Molecule: "CC(=O)c1c(O)cc(O)c(C/C=C(\\C)CCC=C(C)C)c1O"
  Bound operator: "="
  IC50 [nM]: 3500
- Molecule: "COc1c(CC=C(C)C)c(O)c(C(CC(C)C)c2c(O)c3c(c(C(C)=O)c2O)OC(C)(C)C(O)C3)c(O)c1C(C)=O (stereo unspecified)"
  Bound operator: "="
  IC50 [nM]: 2700

---

# System: Prostaglandin E synthase (Homo sapiens)
# Sequence (O14684 whole entry): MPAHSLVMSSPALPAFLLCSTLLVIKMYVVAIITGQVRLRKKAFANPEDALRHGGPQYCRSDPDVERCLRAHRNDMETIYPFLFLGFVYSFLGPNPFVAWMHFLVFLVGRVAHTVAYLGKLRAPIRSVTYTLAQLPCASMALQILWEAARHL
# Protocol text: Inhibition of human A549 cell microsomal membrane-derived mPGES-1 assessed as reduction in conversion of PGH2 to PGE2 preincubated for 15 mins followed by PGH2 addition measured after 1 min by RP-HPLC analysis
IC50 overview

- Compound: "COc1c(CC=C(C)C)c(O)c(C(CC(C)C)c2c(O)c(C(C)=O)c(O)c3c2OC(C)(C)C(O)C3)c(O)c1C(C)=O (centres undefined)"
  Bound operator: "="
  IC50 (nM): 1900
- Compound: "CC(=O)c1c(O)c(CC=C(C)C)c(O)c(C(CC(C)C)c2c(O)c(CC=C(C)C)c(O)c(C(C)=O)c2O)c1O"
  Bound operator: ">"
  IC50 (nM): 10000
- Compound: "COc1c(CC=C(C)C)c(O)c(C(CC(C)C)c2c(O)c3c(c(C(C)=O)c2O)OC(C)(C)C=C3)c(O)c1C(C)=O (centres undefined)"
  Bound operator: "="
  IC50 (nM): 4200
- Compound: "C=C(C)[C@@H](O)Cc1c(O)c(C(C)=O)c(O)c(C(CC(C)C)c2c(O)c(CC=C(C)C)c(OC)c(C(C)=O)c2O)c1O (some centres undefined)"
  Bound operator: "="
  IC50 (nM): 1100

---

# System: Polyunsaturated fatty acid 5-lipoxygenase (Homo sapiens)
# Sequence (P09917 whole entry): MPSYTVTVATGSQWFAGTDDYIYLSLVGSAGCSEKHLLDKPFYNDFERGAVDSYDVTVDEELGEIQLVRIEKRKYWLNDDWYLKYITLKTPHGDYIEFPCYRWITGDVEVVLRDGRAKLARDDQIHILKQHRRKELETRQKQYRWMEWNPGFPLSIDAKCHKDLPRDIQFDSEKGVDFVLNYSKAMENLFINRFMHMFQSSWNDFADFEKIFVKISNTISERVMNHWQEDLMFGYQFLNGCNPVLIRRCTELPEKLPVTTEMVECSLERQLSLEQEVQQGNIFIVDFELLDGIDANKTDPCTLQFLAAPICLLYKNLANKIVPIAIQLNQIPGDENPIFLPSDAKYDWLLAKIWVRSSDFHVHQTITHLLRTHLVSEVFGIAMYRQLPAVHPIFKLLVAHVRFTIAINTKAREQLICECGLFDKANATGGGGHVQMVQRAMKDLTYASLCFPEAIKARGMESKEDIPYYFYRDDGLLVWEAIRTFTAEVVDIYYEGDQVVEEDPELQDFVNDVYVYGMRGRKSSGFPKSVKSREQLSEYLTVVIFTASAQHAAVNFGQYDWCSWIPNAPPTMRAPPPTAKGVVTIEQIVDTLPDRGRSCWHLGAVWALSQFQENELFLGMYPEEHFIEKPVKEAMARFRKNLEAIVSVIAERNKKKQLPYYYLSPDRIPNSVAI
# Protocol text: Inhibition of human recombinant 5-LO expressed in Escherichia coli MV1190 using arachidonic acid as substrate preincubated for 10 mins followed by substrate addition measured after 10 mins by RP-HPLC analysis
pIC50: −log10 of the molar value.

- Molecule: "CC(=O)c1c(O)c(C(CC(C)C)c2c(O)c3c(c(C(C)=O)c2O)OC(C)(C)C=C3)c(O)c2c1OC(C)(C)C=C2"
  Bound operator: "="
  pIC50: 5.62
- Molecule: "COc1c(CC=C(C)C)c(O)c(C(CC(C)C)c2c(O)c(C(C)=O)c(O)c3c2OC(C)(C)C(O)C3)c(O)c1C(C)=O (stereo not drawn)"
  Bound operator: "="
  pIC50: 5.70
- Molecule: "COc1c(CC=C(C)C)c(O)c(C(CC(C)C)c2c(O)c3c(c(C(C)=O)c2O)OC(C(C)(C)O)C3)c(O)c1C(C)=O (stereo not drawn)"
  Bound operator: "<"
  pIC50: 5.00
- Molecule: "CC(=O)c1c(O)c(C/C=C(/C)CCC=C(C)C)c(O)c(C(CC(C)C)c2c(O)c(C/C=C(\\C)CCC=C(C)C)c(O)c(C(C)=O)c2O)c1O (stereo not drawn)"
  Bound operator: "="
  pIC50: 5.44
- Molecule: "C=C(C)[C@@H](O)Cc1c(O)c(C(C)=O)c(O)c(C(CC(C)C)c2c(O)c(CC=C(C)C)c(OC)c(C(C)=O)c2O)c1O (stereo partly drawn)"
  Bound operator: "="
  pIC50: 5.60
- Molecule: "CC(=O)c1c(O)cc(O)c(C(CC(C)C)c2c(O)cc(O)c(C(C)=O)c2O)c1O"
  Bound operator: "="
  pIC50: 5.77
- Molecule: "COc1c(CC=C(C)C)c(O)c(C(CC(C)C)c2c(O)c3c(c(C(C)=O)c2O)OC(C)(C)C=C3)c(O)c1C(C)=O (stereo not drawn)"
  Bound operator: "="
  pIC50: 5.22
- Molecule: "COc1c(CC=C(C)C)c(O)c(C(CC(C)C)c2c(O)c(C(C)=O)c(O)c3c2OC(C(C)(C)O)C3)c(O)c1C(C)=O (stereo not drawn)"
  Bound operator: "="
  pIC50: 5.28
- Molecule: "C=C(C)C1Cc2c(O)c(C(CC(C)C)c3c(O)c4c(c(C(C)=O)c3O)OC(C(=C)C)C4)c(O)c(C(C)=O)c2O1 (stereo not drawn)"
  Bound operator: "<"
  pIC50: 5.00
- Molecule: "COc1c(CC=C(C)C)c(O)c(C(CC(C)C)c2c(O)c3c(c(C(C)=O)c2O)OC(C)(C)C(O)C3)c(O)c1C(C)=O (stereo not drawn)"
  Bound operator: "="
  pIC50: 5.14
- Molecule: "CC(=O)c1c(O)cc(O)c(C/C=C(\\C)CCC=C(C)C)c1O"
  Bound operator: "="
  pIC50: 6.00
- Molecule: "CC(=O)c1c(O)c(CC=C(C)C)c(O)c(C(CC(C)C)c2c(O)c(CC=C(C)C)c(O)c(C(C)=O)c2O)c1O"
  Bound operator: "<"
  pIC50: 5.00
- Molecule: "COc1c(CC=C(C)C)c(O)c(C(CC(C)C)c2c(O)c(CC=C(C)C)c(O)c(C(C)=O)c2O)c(O)c1C(C)=O (stereo not drawn)"
  Bound operator: "="
  pIC50: 5.57
